Provide the reported normalized growth of each item.
# Assay info: chemical genetic growth profiling, strain panel (AID 1159580);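 note: tested at 20 µM; growth read once vehicle control cultures reached saturation at 30 °C; 1 = growth at the plate median or of vehicle wells; lower values mean less growth of the strain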
# Test conditions: S. cerevisiae deletion strains, growth OD, locus YKL160W, strain elf1, stronger effect = lower value
The whole screen tested about 5,500 compounds, of which about 2,000 (36%) were called active. Another 18% or so got no clear call; they are omitted. The list shows a part of the results.
Answer field: number only, no words.

// fetch normalized growth given entry CC(C)c1c(C(=O)c2ccccc2)c(-c2ccccc2)c(-c2ccc(F)cc2)n1CC[C@@H](O)C[C@@H](O)CC(=O)O
0.921

// fetch normalized growth given entry CCOC(=O)CCC(=O)O[C@H]1[C@H](O[C@@H]2[C@@H](C)[C@H](O[C@H]3C[C@@](C)(OC)[C@@H](O)[C@H](C)O3)[C@@H](C)C(=O)O[C@H](CC)[C@@](C)(O)[C@H](O)[C@@H](C)C(=O)[C@H](C)C[C@@]2(C)O)O[C@H](C)C[C@@H]1N(C)C
1

// fetch normalized growth given entry COc1cc2c(cc1OC)[C@@H]1C(=O)c3ccc(OC)c(CC=C(C)C)c3O[C@@H]1CO2
1.02

// fetch normalized growth given entry c1cncc(C2CCCCN2)c1 (stereo not drawn)
0.992

// fetch normalized growth given entry COc1ccc2c(c1)OCc1c-2oc2cc(OC)ccc12
0.748

// fetch normalized growth given entry CC(=O)OCC(=O)[C@H]1CCC2C3CCC4=CC(=O)CC[C@]4(C)C3CC[C@@]21C (stereo partly drawn)
0.964

// fetch normalized growth given entry COc1ccc2c3c1O[C@H]1C[C@@H](O)C=C[C@@]31CCN(C)C2
0.996

// fetch normalized growth given entry CCC(=O)O[C@H]1[C@H](O[C@@H]2[C@@H](C)[C@H](O[C@H]3C[C@@](C)(OC)[C@@H](O)[C@H](C)O3)[C@@H](C)C(=O)O[C@H](CC)[C@@](C)(O)[C@H](O)[C@@H](C)C(=O)[C@H](C)C[C@@]2(C)O)O[C@H](C)C[C@@H]1N(C)C
0.924

// fetch normalized growth given entry CC(N)CCCC(C)(C)O (stereo not drawn)
0.991

// fetch normalized growth given entry COc1cc2c(cc1OC)[C@@H]1C(=O)c3ccc4c(c3O[C@@H]1CO2)C=CC(C)(C)O4
0.973

// fetch normalized growth given entry COc1ccc2c(c1)O[C@@H]1COc3cc(OC)c(OC)cc3[C@@H]1C2=O
0.428

// fetch normalized growth given entry CCOC(=O)c1c(C)cc(O)c(C=O)c1O
0.655

// fetch normalized growth given entry CN1CCCN=C1COC(=O)C(O)(c1ccccc1)C1CCCCC1 (stereo not drawn)
0.998

// fetch normalized growth given entry NCC1CCC(C(=O)O)CC1 (stereo not drawn)
0.997

// fetch normalized growth given entry C[C@H]1CC2C([C@@H](O)C[C@@]3(C)C2CC[C@]3(O)C(=O)CO)[C@@]2(C)C=CC(=O)C=C12 (stereo partly drawn)
0.975

// fetch normalized growth given entry ClC1=C(Cl)C2(Cl)C3C4C=CC(C4)C3C1(Cl)C2(Cl)Cl (stereo not drawn)
0.998

// fetch normalized growth given entry Cc1cc(O)c(C)c(O)c1C(=O)O
1.02

// fetch normalized growth given entry CC1=C(C(C)O)C2=NC1C=c1[nH]c(c(C)c1C(C)O)=Cc1[nH]c(c(CCC(=O)O)c1C)C=c1[nH]c(c(C)c1CCC(=O)O)=C2 (stereo not drawn)
0.99

These data points were gathered from PubChem BioAssay AID1159580.
